Listed compounds paired with reported log10 of IC50
- SYSTEM NAME: Wt EGFR (Homo sapiens, UniProt P00533)
- Construct: isolated from A431 human epidermoid carcinoma cells which overexpress EGF receptor; endogenous in cells
- Sequence (P00533 25-1210): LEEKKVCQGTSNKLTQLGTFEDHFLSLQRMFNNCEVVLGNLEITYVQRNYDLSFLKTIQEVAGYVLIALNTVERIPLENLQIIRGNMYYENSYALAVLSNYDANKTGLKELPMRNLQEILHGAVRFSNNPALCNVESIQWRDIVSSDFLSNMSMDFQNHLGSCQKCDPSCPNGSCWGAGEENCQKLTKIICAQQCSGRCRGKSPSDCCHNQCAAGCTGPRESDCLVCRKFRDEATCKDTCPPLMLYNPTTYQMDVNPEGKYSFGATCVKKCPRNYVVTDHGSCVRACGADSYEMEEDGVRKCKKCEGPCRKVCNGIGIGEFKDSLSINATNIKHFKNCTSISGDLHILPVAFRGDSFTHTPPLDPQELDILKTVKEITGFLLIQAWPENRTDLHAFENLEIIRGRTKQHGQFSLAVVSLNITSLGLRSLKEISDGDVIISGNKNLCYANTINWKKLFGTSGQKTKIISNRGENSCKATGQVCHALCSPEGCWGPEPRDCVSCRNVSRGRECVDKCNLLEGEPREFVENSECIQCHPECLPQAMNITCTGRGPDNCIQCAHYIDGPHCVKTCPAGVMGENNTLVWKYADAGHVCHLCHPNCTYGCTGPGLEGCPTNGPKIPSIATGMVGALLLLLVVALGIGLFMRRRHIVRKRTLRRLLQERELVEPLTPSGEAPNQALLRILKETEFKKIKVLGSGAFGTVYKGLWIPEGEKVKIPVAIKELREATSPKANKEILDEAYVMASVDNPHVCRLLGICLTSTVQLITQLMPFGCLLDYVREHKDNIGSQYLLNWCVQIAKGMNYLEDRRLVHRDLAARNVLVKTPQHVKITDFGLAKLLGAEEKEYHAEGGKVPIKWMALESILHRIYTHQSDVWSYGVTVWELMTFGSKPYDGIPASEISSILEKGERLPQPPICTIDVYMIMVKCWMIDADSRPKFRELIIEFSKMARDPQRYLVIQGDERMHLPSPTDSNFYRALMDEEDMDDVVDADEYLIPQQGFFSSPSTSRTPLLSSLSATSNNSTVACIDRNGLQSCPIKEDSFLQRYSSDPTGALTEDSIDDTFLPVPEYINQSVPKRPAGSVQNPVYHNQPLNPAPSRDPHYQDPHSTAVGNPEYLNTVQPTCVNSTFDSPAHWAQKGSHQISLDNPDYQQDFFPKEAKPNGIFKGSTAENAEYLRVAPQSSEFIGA
- ASSAY NAME: Enzyme assay, IC50 for wt EGFR (Caliper)
- RUN CONDITIONS: enzyme phosphorylation assay; read-out: EGFR_WT IC50
- Method: Purification of Epidermal Growth Factor Receptor Tyrosine Kinase Human EGF receptor tyrosine kinase was isolated from A431 human epidermoid carcinoma cells which overexpress EGF receptor by the following methods. Cells were grown in roller bottles in 50% Delbuco's Modified Eagle and 50% HAM F-12 nutrient media (Gibco) containing 10% fetal calf serum. […]
Hi team, quick reminder: these entries are log10 of IC50 (nM).

A selection of reference data follows.
MOLECULE: C=CC(=O)Nc1cc(Nc2nccc(N3CCc4ccccc43)n2)c(OC)cc1N(C)CCN(C)C
SYSTEM NAME: Wt EGFR (Homo sapiens, UniProt P00533)
log10 of IC50: 0.83
//
MOLECULE: C=CC(=O)Nc1cc(Nc2nccc(-n3cc(C#N)c4ccccc43)n2)c(OC)cc1N(C)CCN(C)C
SYSTEM NAME: Wt EGFR (Homo sapiens, UniProt P00533)
log10 of IC50: 0.58
//
MOLECULE: C=CC(=O)Nc1cc(Nc2nccc(-n3cc(C(N)=O)c4ccccc43)n2)c(OC)cc1N(C)CCN(C)C
SYSTEM NAME: Wt EGFR (Homo sapiens, UniProt P00533)
log10 of IC50: 0.04

Form: compound = C=CC(=O)Nc1cc(Nc2nccc(-n3cc(CO)c4ccccc43)n2)c(OC)cc1N(C)CCN(C)C ; log10 of IC50 = 0.32

Form: compound = C=CC(=O)Nc1cc(Nc2nccc(-n3cc(C)c4ccccc43)n2)c(OC)cc1N(C)CCN(C)C ; log10 of IC50 = 0.85

Form: compound = C=CC(=O)Nc1cc(Nc2nccc(-c3c[nH]c4c(C)cccc34)n2)c(OC)cc1N(C)CCN(C)C ; log10 of IC50 = 0.18

Form: compound = C=CC(=O)Nc1cc(Nc2nccc(-c3n[nH]c4ccccc34)n2)c(OC)cc1N(C)CCN(C)C ; log10 of IC50 = 0.28

Form: compound = C=CC(=O)Nc1cc(Nc2nccc(-n3c(=O)[nH]c4ccccc43)n2)c(OC)cc1N(C)CCN(C)C ; log10 of IC50 = 0.11

Form: compound = C=CC(=O)Nc1cc(Nc2nccc(-c3cn(C)c4cccc(C)c34)n2)c(OC)cc1N(C)CCN(C)C ; log10 of IC50 = 1.49
